What AC50 was measured for each of the following?
Target: human PAH with the R408W mutation (Homo sapiens, UniProt P00439, R408W)
Construct: expressed in transfected cells
Experiment: Cell Based Phenylalanine Flux Assay
Settings: A375 cells expressing human R408W PAH; 24 hrs with compound, then sepiapterin and 13C9,15N-Phenylalanine for 4 hours; 13C-Tyrosine by LC-MS; average where tested multiple times; read-out: AC50

Look at this compound and give its reported AC50. CCc1cccn2nc([C@@H]3c4nc[nH]c4CCN3C(=O)c3nnc(-c4ccccn4)o3)cc12
< 500 nM

And then O=C(c1nnc(-c2ccn(C(F)F)n2)o1)N1CCc2[nH]cnc2[C@@H]1c1cc2cccc(C(F)F)n2n1 , what is it?
1000 to 5000 nM

Next compound up: Cc1cccc(-c2nnc(C(=O)N3CCc4[nH]cnc4[C@H]3c3cc4c(Cl)cccn4n3)o2)n1
< 500 nM

Thanks! And CC(C)c1cccn2nc([C@H]3c4nc[nH]c4CCN3c3nnc(-c4cccnc4F)o3)cc12 ?
> 5000 nM

# iterate: Cc1ccc2c(C(=O)N3CCc4[nH]cnc4[C@H]3c3cc4c(C(F)F)cccn4n3)cnn2c1
500 to 1000 nM

Now the compound O=C(c1cnc(-c2ccccn2)o1)N1CCc2[nH]cnc2C1c1cc2c(C(F)(F)F)cccn2n1 (stereo in doubt)
< 500 nM

How about Cc1cc(-c2nnc(C(=O)N3CCc4[nH]cnc4[C@H]3c3cc4c(F)cccn4n3)o2)n[nH]1 ?
500 to 1000 nM

Follow-up entry: Cc1cccc(-c2nnc(N3CCc4[nH]cnc4[C@@H]3c3cc4c(C(F)F)cccn4n3)o2)n1
> 5000 nM

Further, for O=C(c1cnn2cc(-c3ccccn3)ccc12)N1CCc2[nH]cnc2[C@H]1c1cc2c(C(F)(F)F)cccn2n1 ?
< 500 nM

Okay, and CN(C)c1ccc2c(C(=O)N3CCc4[nH]cnc4[C@H]3c3cc4c(F)cccn4n3)cnn2c1 ?
500 to 1000 nM

Let us now turn to Cc1c[nH]nc1-c1nnc(C(=O)N2CCc3[nH]cnc3[C@H]2c2cc3c(F)cccn3n2)o1
< 500 nM

Also need O=C(c1nnc(C2CCC2)o1)N1CCc2[nH]cnc2[C@@H]1c1cc2ccccn2n1 , thanks.
> 5000 nM

Can you handle Clc1cccn2nc([C@H]3c4nc[nH]c4CCN3c3nnc(-c4ccccn4)o3)cc12 next?
1000 to 5000 nM

Same read-out for CC(C)c1cccn2nc([C@@H]3c4nc[nH]c4CCN3C(=O)c3nnc(-c4ccn(C(F)F)n4)o3)cc12 ?
< 500 nM

Moving on to the next compound: O=C(c1nnc(C2CC2)o1)N1CCc2[nH]cnc2[C@@H]1c1cc2c(Br)cccn2n1
1000 to 5000 nM

---

Target: human PAH with the R408W mutation (Homo sapiens, UniProt P00439, R408W)
Construct: expressed in transfected cells
Assay: Cell Based Phenylalanine Flux Assay
Conditions: A375 cells expressing human R408W PAH; 24 hrs with compound, then sepiapterin and 13C9,15N-Phenylalanine for 4 hours; 13C-Tyrosine by LC-MS; average where tested multiple times; read-out: AC50
For each entry below, report its AC50 value.

Consider the compound Fc1ccc(-c2nnc(N3CCc4[nH]cnc4[C@H]3c3cc4c(C(F)F)cccn4n3)o2)cc1 and give its measured AC50.
< 500 nM

Moving on to the next compound: Cc1cccc(-c2nnc(C(=O)N3CCc4[nH]cnc4[C@@H]3c3cc4c(C)cccn4n3)o2)n1
> 5000 nM

What about FC(F)c1nnc(N2CCc3[nH]cnc3[C@H]2c2cc3c(OC(F)(F)F)cccn3n2)o1 ?
< 500 nM

Also, CC(C)(F)c1nnc(C(=O)N2CCc3[nH]cnc3[C@@H]2c2cc3c(C4CC4)cccn3n2)o1 please.
> 5000 nM

Clc1cccc2cc([C@@H]3c4nc[nH]c4CCN3c3nnc(-c4ccccn4)o3)nn12 ?
500 to 1000 nM

Same lookup for COCc1ccc2c(C(=O)N3CCc4[nH]cnc4[C@H]3c3cc4c(Cl)cccn4n3)cnn2c1 , please.
500 to 1000 nM

// query: CCc1cccn2nc([C@H]3c4nc[nH]c4CCN3C(=O)c3nnc(C(C)(C)F)o3)cc12
> 5000 nM

Here is the next compound: O=C(c1cnc(-c2cnccn2)o1)N1CCc2[nH]cnc2[C@H]1c1cc2c(C(F)F)cccn2n1
500 to 1000 nM

Now the compound Fc1cccn2nc([C@@H]3c4nc[nH]c4CCN3c3ncc(C(F)(F)F)cn3)cc12
< 500 nM

Try CC(C)(C)c1ncc(C(=O)N2CCc3[nH]cnc3[C@H]2c2cc3c(F)cccn3n2)o1 next.
< 500 nM

Now the same for c1cnc(N2CCc3[nH]cnc3[C@H]2c2cc3ccccn3n2)nc1
500 to 1000 nM

How about CC(F)(F)c1nnc(N2CCc3[nH]cnc3[C@@H]2c2cc3c(Cl)cccn3n2)o1 ?
> 5000 nM

Also, Cc1cccc2cc([C@@H]3c4nc[nH]c4CCN3c3ncc(C(F)(F)F)cn3)nn12 please.
500 to 1000 nM

Can you check O=C(c1nnc(-c2ccccn2)s1)N1CCc2[nH]cnc2[C@H]1c1cc2c(F)cccn2n1 next?
< 500 nM

Query Fc1cccn2nc([C@@H]3c4nc[nH]c4CCN3c3nnc(-c4cnccn4)o3)cc12 next
500 to 1000 nM

One more compound: Cc1cccnc1-c1nnc(N2CCc3[nH]cnc3[C@H]2c2cc3cccc(Cl)n3n2)o1
< 500 nM

Now give it for Cc1cccn2nc([C@H]3c4nc[nH]c4CCN3c3nnc(C4(C)CC4)o3)cc12 too.
> 5000 nM

---

Task for the reader: assign each of the following compounds its reported AC50.
Biological target: human PAH with the R408W mutation (Homo sapiens, UniProt P00439, R408W)
Construct: expressed in transfected cells
Experiment: Cell Based Phenylalanine Flux Assay
Settings: A375 cells expressing human R408W PAH; 24 hrs with compound, then sepiapterin and 13C9,15N-Phenylalanine for 4 hours; 13C-Tyrosine by LC-MS; average where tested multiple times; read-out: AC50

So what does the record say about AC50 for CC(C)(F)c1nnc(C(=O)N2CCc3[nH]cnc3[C@H]2c2cc3cccc(C(F)F)n3n2)o1 ?
0.5 to 1 µM

Now consider Cc1cc(-c2nnc(C(=O)N3CCc4[nH]cnc4[C@@H]3c3cc4cccc(C(F)F)n4n3)o2)nn1C and answer again.
> 5 µM

Field entry: O=C(c1cnc(-c2ccccn2)o1)N1CCc2[nH]cnc2[C@@H]1c1cc2c(C(F)F)cccn2n1
> 5 µM

Query FC(F)c1cccc2cc([C@H]3c4nc[nH]c4CCN3c3nnc(-c4ccccn4)o3)nn12 next
> 5 µM

# repeat for O=C(C1CCC1)N1CCc2[nH]cnc2[C@@H]1c1cc2c(F)cccn2n1
> 5 µM

Same read-out for Cn1cc(-c2nnc(C(=O)N3CCc4[nH]cnc4[C@H]3c3cc4cccc(C(F)F)n4n3)o2)cn1 ?
< 0.5 µM

For Cc1cccnc1-c1nnc(N2CCc3[nH]cnc3[C@@H]2c2cc3c(F)cccn3n2)o1 then?
> 5 µM

What do you get for CC(C)c1cccn2nc([C@@H]3c4nc[nH]c4CCN3c3nnc(C4(C)CC4)o3)cc12 ?
< 0.5 µM

Now this one: Fc1ccc(-c2nnc(N3CCc4[nH]cnc4[C@@H]3c3cc4c(F)cccn4n3)o2)cc1
> 5 µM

What would you report for Cc1ncccc1-c1nnc(N2CCc3[nH]cnc3[C@H]2c2cc3cccc(Cl)n3n2)o1 ?
0.5 to 1 µM

Entry to check: CC(C)(F)c1ncc(C(=O)N2CCc3[nH]cnc3[C@H]2c2cc3c(F)cccn3n2)o1
< 0.5 µM

Request: Cc1cccc2cc([C@@H]3c4nc[nH]c4CCN3c3ccc(C(F)(F)F)cn3)nn12
0.5 to 1 µM

Queued: O=C(c1nnc(-c2cnn(C(F)(F)F)c2)o1)N1CCc2[nH]cnc2[C@H]1c1cc2cccc(C(F)F)n2n1
0.5 to 1 µM

Let us now turn to FC(F)Oc1cccn2nc([C@H]3c4nc[nH]c4CCN3c3nnc(C(F)(F)F)o3)cc12
> 5 µM

# repeat for O=C(c1ocnc1C1CC1)N1CCc2[nH]cnc2[C@H]1c1cc2c(Cl)cccn2n1
< 0.5 µM

Ok, now Cc1c[nH]nc1-c1nnc(C(=O)N2CCc3[nH]cnc3[C@@H]2c2cc3c(F)cccn3n2)o1
> 5 µM

---

Target: human PAH with the R408W mutation (Homo sapiens, UniProt P00439, R408W)
Construct: expressed in transfected cells
Sequence (P00439 1-452 R408W): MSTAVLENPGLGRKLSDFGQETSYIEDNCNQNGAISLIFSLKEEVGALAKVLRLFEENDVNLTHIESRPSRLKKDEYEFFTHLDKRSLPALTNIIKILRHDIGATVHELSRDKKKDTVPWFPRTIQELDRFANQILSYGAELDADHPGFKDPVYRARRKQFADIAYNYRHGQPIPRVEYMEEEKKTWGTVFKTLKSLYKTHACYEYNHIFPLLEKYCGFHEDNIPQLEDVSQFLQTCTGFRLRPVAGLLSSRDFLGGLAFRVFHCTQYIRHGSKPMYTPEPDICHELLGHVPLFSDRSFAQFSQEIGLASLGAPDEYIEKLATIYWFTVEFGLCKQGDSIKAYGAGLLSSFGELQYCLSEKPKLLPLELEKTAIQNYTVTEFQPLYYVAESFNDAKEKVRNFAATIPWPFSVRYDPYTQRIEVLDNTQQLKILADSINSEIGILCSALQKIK
Assay: Cell Based Phenylalanine Flux Assay;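 also: Ten-point dose curve from 2-fold serial dilutions, run in duplicate at 0.5% DMSO final, tracer step used 20 µM sepiapterin and 800 µM labeled phenylalanine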
Settings: A375 cells expressing human R408W PAH; 24 hrs with compound, then sepiapterin and 13C9,15N-Phenylalanine for 4 hours; 13C-Tyrosine by LC-MS; average where tested multiple times; read-out: AC50
recorded_endpoint: AC50

Which AC50 is reported for this compound? O=C(c1nnc(C2CC2)o1)N1CCc2[nH]cnc2[C@H]1c1cc2ccc(F)cn2n1
1000 to 5000 nM

Next record, please: CC(C)c1nnc(C(=O)N2CCc3[nH]cnc3[C@@H]2c2cc3cccc(Cl)n3n2)o1
1000 to 5000 nM

Lookup FC(F)(F)Oc1cccn2nc([C@H]3c4nc[nH]c4CCN3c3nnc(C(F)(F)F)o3)cc12
500 to 1000 nM

Queued: O=C(c1nnc(-c2ccn(C(F)(F)F)n2)o1)N1CCc2[nH]cnc2[C@H]1c1cc2cccc(Cl)n2n1
< 500 nM

Try O=C(c1nnc(-c2cnn(C(F)(F)F)c2)o1)N1CCc2[nH]cnc2[C@H]1c1cc2cccc(C(F)(F)F)n2n1 next.
1000 to 5000 nM

Next up: CC(C)(O)c1ncc(C(=O)N2CCc3[nH]cnc3[C@H]2c2cc3c(Cl)cccn3n2)o1
500 to 1000 nM

Next up: Fc1ccc(-c2nnc(N3CCc4[nH]cnc4[C@@H]3c3cc4cccc(Cl)n4n3)o2)cc1
> 5000 nM
